inhibition by entry:
Experiment: growth inhibition of CRL1545 osteosarcoma cells, cell-based, cisplatin and BGB IC20 combos (AID 1671464);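 note: cells exposed to compound for 96 hours before readout; 0% = vehicle DMSO and 100% = high DMSO killing control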
Settings: measured here: with BGB IC20 combination, at 0.5 µM, stronger effect = higher value
Answer with a number only, understood to be in %.

[
  {
    "molecule": "CN1CCN(c2c(F)cc3c(=O)c(C(=O)O)cn(CCF)c3c2F)CC1",
    "inhibition [%]": -8.63
  }
]

Give the reported inhibition for this molecule. COc1c2ccoc2cc2oc(=O)ccc12 -18.6

Given the molecule CN(N=O)C(=O)NC1C(O)OC(CO)C(O)C1O (stereo unspecified) , write its reported inhibition. -18.9

For the molecule CN1C[C@@H]2C[C@H]1CN2c1cc2c(cc1F)c(=O)c(C(=O)O)cn2C1CC1 , report inhibition. -46.3

Read off the recorded inhibition for CN1CCN(c2c(F)cc3c(=O)c(C(=O)O)cn4c3c2OCN4C)CC1 -0.247
